subject-of-test: T1, PSMA Fab (biotinylated (site not stated))
T1 construct: also called Anti-PSMA Fab; 006 PSMA Fab
protocol: clonal phage ELISA; biotinylated PSMA Fab on neutravidin plate; bound phage detected with anti-M13-HRP
Where no end group is shown, it is not given here.
Each entry below carries its reported Phage binding ELISA signal, Anti-PSMA Fab.
Form field (numeric): enter value without unit.

Record excerpt, results attached:
# binder, value-reported
data = [
    ("WEKWCTPSGMCDAR [Phage-2627]", 0.982),
    ("MNKWCTPAWMCEVV (cysteine pairing not given here; also: displayed on phage as pIII fusion) [Phage-2619]", 0.998),
    ("FHMWCTPAWMCADQ (cysteine pairing not given here; also: displayed on phage as pIII fusion) [Phage-2622]", 0.996),
    ("PETRCIPSWMCSGM [Phage-2625]", 0.989),
]

Moving on to another binder below.
Ask: Look up Phage binding ELISA signal, Anti-PSMA Fab for this binder: VTKLCIPEWMCASD (cysteine pairing not given here; also: displayed on phage as pIII fusion) [Phage-2630]
Reply: 0.975

The origin of these recorded values is patent US20260242478A1.
